molecular target: intracellular GCN2 (phosphorylation of the GCN2 substrate eIF2α) (Homo sapiens (Human)); test: GCN2 Cellular Inhibition Assay (AlphaScreen SureFire P-eIF2α Ser51, borrelidin-treated U2OS cells); assay type: cell-based; details: 10 μM borrelidin, 1 h, phosphorylated eIF2α Ser51, read-out: GCN2 Biomarker (IC50)
Sequence (Q9P2K8 whole entry): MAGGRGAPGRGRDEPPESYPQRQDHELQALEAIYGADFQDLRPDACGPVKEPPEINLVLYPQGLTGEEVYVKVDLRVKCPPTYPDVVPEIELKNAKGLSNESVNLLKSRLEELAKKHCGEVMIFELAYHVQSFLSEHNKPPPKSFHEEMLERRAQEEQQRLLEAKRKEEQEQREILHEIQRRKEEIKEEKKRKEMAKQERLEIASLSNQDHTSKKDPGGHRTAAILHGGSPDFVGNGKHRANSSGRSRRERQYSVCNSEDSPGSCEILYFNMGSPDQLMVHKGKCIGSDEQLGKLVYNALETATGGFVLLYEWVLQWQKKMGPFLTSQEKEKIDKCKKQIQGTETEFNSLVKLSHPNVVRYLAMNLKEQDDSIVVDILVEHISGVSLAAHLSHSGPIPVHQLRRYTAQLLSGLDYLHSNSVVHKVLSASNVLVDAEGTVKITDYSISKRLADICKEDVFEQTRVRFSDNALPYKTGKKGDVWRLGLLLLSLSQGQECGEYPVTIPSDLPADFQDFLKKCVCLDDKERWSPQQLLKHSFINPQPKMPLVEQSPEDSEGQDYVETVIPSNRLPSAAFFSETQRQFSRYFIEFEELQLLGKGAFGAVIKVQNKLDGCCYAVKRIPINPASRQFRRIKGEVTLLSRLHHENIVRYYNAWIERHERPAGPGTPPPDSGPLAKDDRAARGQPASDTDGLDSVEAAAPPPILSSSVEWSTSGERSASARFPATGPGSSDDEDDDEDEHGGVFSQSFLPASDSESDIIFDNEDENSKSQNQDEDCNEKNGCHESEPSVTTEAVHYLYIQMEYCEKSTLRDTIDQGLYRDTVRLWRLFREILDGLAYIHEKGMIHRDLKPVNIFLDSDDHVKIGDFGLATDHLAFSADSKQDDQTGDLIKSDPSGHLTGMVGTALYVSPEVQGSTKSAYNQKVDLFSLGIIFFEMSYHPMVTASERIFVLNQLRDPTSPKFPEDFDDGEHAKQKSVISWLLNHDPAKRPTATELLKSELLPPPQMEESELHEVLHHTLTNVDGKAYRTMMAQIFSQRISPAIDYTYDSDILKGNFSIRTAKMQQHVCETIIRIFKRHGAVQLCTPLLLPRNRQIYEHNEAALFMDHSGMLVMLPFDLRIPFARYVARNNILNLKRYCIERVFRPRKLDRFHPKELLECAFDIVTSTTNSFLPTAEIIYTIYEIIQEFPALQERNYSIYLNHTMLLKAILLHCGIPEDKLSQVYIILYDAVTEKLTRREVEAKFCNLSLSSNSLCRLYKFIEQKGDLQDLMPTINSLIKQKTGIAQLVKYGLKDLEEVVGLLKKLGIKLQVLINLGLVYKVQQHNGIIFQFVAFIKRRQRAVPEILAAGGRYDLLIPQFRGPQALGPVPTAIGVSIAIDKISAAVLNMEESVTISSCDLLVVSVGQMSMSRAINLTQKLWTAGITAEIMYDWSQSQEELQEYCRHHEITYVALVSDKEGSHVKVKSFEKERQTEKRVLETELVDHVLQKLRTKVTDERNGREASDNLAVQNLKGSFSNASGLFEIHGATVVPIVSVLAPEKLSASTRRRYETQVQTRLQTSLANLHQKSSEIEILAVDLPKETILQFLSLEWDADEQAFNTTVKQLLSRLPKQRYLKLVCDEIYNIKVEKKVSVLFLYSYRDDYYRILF
The entries below are paired with their reported IC50.

C[C@H]1CN(c2nccc(-c3cnc4ccc(C(F)F)cn34)n2)C[C@@H](CNS(C)(=O)=O)C1(F)F (stereo in doubt) [I-41] ... 0.5 to 5 µM

## Input Report IC50 for COCCn1cc([C@@H]2C[C@@H](C)CN(c3nccc(-c4cnc5ccc(C(F)(F)F)cn45)n3)C2)cn1 [I-145] tested on intracellular GCN2 (phosphorylation of the GCN2 substrate eIF2α) (Homo sapiens (Human)).
## Output < 0.5 µM

## Input Here is the next compound: FC(F)(F)c1ccc2ncc(-c3nccc(N4CCN(CC5CC5(F)F)C(c5cn[nH]c5)C4)n3)n2c1 (stereo not drawn) [I-470]
## Output < 0.5 µM

## Input Here is the next compound: CS(C)(=O)=NC1CCCN(c2ccnc(-c3cnc4cc(F)c(Cl)cn34)n2)C1 (stereo not drawn) [I-49]
## Output > 5 µM

## Input Here is the next compound: Cc1[nH]ncc1[C@@H]1C[C@@H](O)CN(c2ccnc(-c3cnc4ccc(C(F)(F)F)cn34)n2)C1 [I-308]
## Output 0.5 to 5 µM

## Input Here is the next compound: C[C@H](NS(C)(=O)=O)[C@H]1CN(c2ccnc(-c3cnc4ccc(C(F)(F)F)cn34)n2)CCO1 (stereo in doubt) [I-405]
## Output 0.5 to 5 µM

## Input Here is the next compound: Cc1noc([C@@H]2CN(c3ccnc(-c4cnc5ccc(Cl)cn45)n3)C[C@H](C)O2)n1 [I-62]
## Output 0.5 to 5 µM

## Input Here is the next compound: Cc1[nH]ncc1[C@@H]1[C@H](C)N(c2ccnc(-c3cnc4ccc(C(F)(F)F)cn34)n2)CCN1C1COC1 [I-365]
## Output 0.5 to 5 µM

## Input Here is the next compound: C[C@H]1[C@@H](c2cn[nH]c2)N(CC2(C)COC2)CCN1c1ccnc(-c2cnc3ccc(C(F)(F)F)cn23)n1 [I-481]
## Output < 0.5 µM

## Input Here is the next compound: C[C@H]1C[C@H](c2cn[nH]c2)CN(c2nccc(-c3cnc4ccc(C5CC5)cn34)n2)C1 [I-235]
## Output < 0.5 µM

## Input Here is the next compound: FC(F)(F)c1ccc2ncc(-c3nccc(N4CCN(CC5CC56CCOCC6)C(c5cn[nH]c5)C4)n3)n2c1 (stereo not drawn) [I-476]
## Output < 0.5 µM

## Input Here is the next compound: C[C@@H]1CN(c2nccc(-c3cnc4ccc(C(F)(F)F)cn34)n2)[C@H](C)C(c2cn[nH]c2)N1 (stereo partly drawn) [I-171]
## Output < 0.5 µM

* * *

target: intracellular GCN2 (phosphorylation of the GCN2 substrate eIF2α) (Homo sapiens (Human)); experiment: GCN2 Cellular Inhibition Assay (AlphaScreen SureFire P-eIF2α Ser51, borrelidin-treated U2OS cells); assay type: cell-based; conditions: 10 μM borrelidin, 1 h, phosphorylated eIF2α Ser51, read-out: GCN2 Biomarker (IC50)
The entries below are paired with their reported IC50.

CS(=O)(=O)NC[C@@H]1CN(c2nc(-c3cnc4ccc(C(F)F)cn34)ns2)CCO1 [I-107] ... < 500 nM
NC(=O)[C@@H]1CCCN(c2nc(-c3cnc4ccc(C(F)(F)F)cn34)ccc2F)C1 [I-260] ... < 500 nM
NC(=O)C1CN(c2ccnc(-c3cnc4ccc(C(F)(F)F)cn34)n2)CCN1CCC(F)(F)F (centres unmarked) [I-245] ... 500 to 5000 nM
CC1C(CNS(C)(=O)=O)N(C2COC2)CCN1c1ccnc(-c2cnc3ccc(C(F)F)cn23)n1 (centres unmarked) [I-530] ... 500 to 5000 nM
Cc1[nH]ncc1C1CN(c2ccnc(-c3cnc4ccc(Cl)cn34)n2)CC(C)N1S(C)(=O)=O (centres unmarked) [I-268] ... 500 to 5000 nM
Clc1ccc2ncc(-c3ncnc(N4CCOC(c5cn[nH]c5)C4)n3)n2c1 (centres unmarked) [I-22] ... < 500 nM
C[C@@H]1CN(c2nccc(-c3cnc4ccc(C(F)(F)F)cn34)n2)C[C@H](c2cn[nH]c2)O1 (relative stereo) [I-117] ... < 500 nM
c1ccc(Oc2ccc3ncc(-c4nccc(N5CCCC(c6cn[nH]c6)C5)n4)n3c2)cc1 (centres unmarked) [I-329] ... < 500 nM
C[C@@H]1[C@H]([C@@H](C)NS(C)(=O)=O)N(C2CC2)CCN1c1ccnc(-c2cnc3ccc(C(F)(F)F)cn23)n1 [I-505] ... > 5000 nM
FC(F)(F)c1ccc2ncc(-c3nccc(N4CCC[C@H](C(F)(F)F)C4)n3)n2c1 [I-233] ... 500 to 5000 nM

## Input Request the reported IC50 associated with FC(F)(F)c1ccc2ncc(-c3ccnc(N4CCOC(c5cn[nH]c5)C4)n3)n2c1 (centres unmarked) [I-10]
## Output < 500 nM

## Input Here is the next compound: FC(F)(F)c1ccc2ncc(-c3nccc(N4CCN(C[C@@H]5CC56CCOCC6)[C@H](c5cn[nH]c5)C4)n3)n2c1 [I-520]
## Output < 500 nM

## Input Here is the next compound: C[C@H]1[C@@H](CNS(C)(=O)=O)N(C2CC2)[C@@H](C)CN1c1ccnc(-c2cnc3ccc(C(F)(F)F)cn23)n1 (stereo in doubt) [I-491]
## Output < 500 nM

## Input Here is the next compound: C[C@@H]1C[C@H](c2cn[nH]c2)CN(c2nccc(-c3cnc4ccc(C5CC5)cn34)n2)C1 [I-249]
## Output < 500 nM

## Input Here is the next compound: CC(=O)N1[C@H](C)CN(c2ccnc(-c3cnc4ccc(C(F)(F)F)cn34)n2)C[C@@H]1C [I-414]
## Output 500 to 5000 nM

## Input Here is the next compound: CC1CN(c2nccc(-c3cnc4ccc(C(F)(F)F)cn34)n2)C(C)C(c2cn[nH]c2)N1 (single isomer, unassigned) [I-34]
## Output < 500 nM

## Input Here is the next compound: CC1CC(CS(C)(=N)=O)C(C)N(c2ccnc(-c3cnc4ccc(Cl)cn34)n2)C1 (centres unmarked) [I-46]
## Output 500 to 5000 nM

## Input Here is the next compound: C[C@H]1CN(c2nccc(-c3cnc4ccc(C(F)(F)F)cn34)n2)C[C@@H](c2cn[nH]c2)O1 [I-126]
## Output < 500 nM

## Input Here is the next compound: Cc1[nH]ncc1[C@@H]1CN(c2ccnc(-c3cnc4ccc(C(F)(F)F)cn34)n2)C[C@H](C)O1 [I-124]
## Output < 500 nM

## Input Here is the next compound: Cc1ncc(CN2CCN(c3ccnc(-c4cnc5ccc(C(F)(F)F)cn45)n3)CC2c2cn[nH]c2)[nH]1 (centres unmarked) [I-372]
## Output 500 to 5000 nM
